methodNotes: pKa value for amino group in the compound
Assay type: physicochemical
conditionDescription: read-out: pKa2
Can you tell me pKa for the items I'm about to list?

The compound listed as CCN1CCCC(NCc2c3ccccc3c(CNC3CCCN(CC)C3)c3ccccc23)C1 (centres undefined) has a reported pKa of 3

The compound listed as CN(C)CCNCc1c2ccccc2c(CNCCN(C)C)c2ccccc12 has a reported pKa of 5.35

The compound listed as CN(C)CCN(C)Cc1c2ccccc2c(CN(C)CCN(C)C)c2ccccc12 has a reported pKa of 4.2

The compound listed as c1ccc2c(CNCCN3CCOCC3)c3ccccc3c(CNCCN3CCOCC3)c2c1 has a reported pKa of 6.3

* * *

Tested on: Nucleic Acid
methodNotes: Apparent binding constant (McGhee-von Hippel) was determined by using spectrophotometric titration
Format: nucleic-acid assay
conditionDescription: Bos taurus
endpointLabel: K app

The molecule listed as CN1CCN=C1/C=C/c1c2ccccc2c(/C=C/C2=NCCN2)c2ccccc12 has a reported K app of 8.29 µM⁻¹

The molecule listed as OCCCCCNCc1c2ccccc2c(CNCCCCCO)c2ccccc12 has a reported K app of 0.0532 µM⁻¹

The molecule listed as NCCNCc1c2ccccc2c(CNCCN)c2ccccc12 has a reported K app of 0.27 µM⁻¹

The molecule listed as C(=N\NC1=NCCN1)/c1c2ccccc2c(/C=N/NC2=NCCN2)c2ccccc12 [BISANTRENE] has a reported K app of 9.03 µM⁻¹

The molecule listed as CN(C)CCNCc1c2ccccc2c(CNCCN(C)C)c2ccccc12 has a reported K app of 0.1 µM⁻¹

The molecule listed as CCN1CCCC(NCc2c3ccccc3c(CNC3CCCN(CC)C3)c3ccccc23)C1 (stereo unspecified) has a reported K app of 0.0605 µM⁻¹

* * *

Test system: Nucleic Acid
methodNotes: Cubic spline relative binding strength was determined by using spectrophotometric titration
Format: nucleic-acid assay
conditionDescription: Bos taurus
endpointLabel: Relative binding
Response field accepts a number only; no unit should be typed.

The molecule listed as CN(C)CCNCc1c2ccccc2c(CNCCN(C)C)c2ccccc12 has a reported Relative binding of 0.75

The molecule listed as CCN1CCCC(NCc2c3ccccc3c(CNC3CCCN(CC)C3)c3ccccc23)C1 (stereo unspecified) has a reported Relative binding of 0.75

The molecule listed as CN1CCN=C1/C=C/c1c2ccccc2c(/C=C/C2=NCCN2)c2ccccc12 has a reported Relative binding of 1.08

The molecule listed as C(=N\NC1=NCCN1)/c1c2ccccc2c(/C=N/NC2=NCCN2)c2ccccc12 has a reported Relative binding of 1.03

The molecule listed as NCCNCc1c2ccccc2c(CNCCN)c2ccccc12 has a reported Relative binding of 0.75

The molecule listed as OCCCCCNCc1c2ccccc2c(CNCCCCCO)c2ccccc12 has a reported Relative binding of 0.84

* * *

Tested on: Nucleic Acid
methodNotes: delta Tm value is the difference between Tm(melting temperature) for calf thymus DNA with drug and without drug(Tm = 71 degree C for DNA alone)
Format: functional
conditionDescription: Bos taurus
endpointLabel: ΔTm (°C)
Numeric only. Scale: °C

The compound listed as CNCCN(C)Cc1c2ccccc2c(CN(C)CCNC)c2ccccc12 has a reported ΔTm of 3

The compound listed as c1ccc2c(CNCCN3CCOCC3)c3ccccc3c(CNCCN3CCOCC3)c2c1 has a reported ΔTm of 5

The compound listed as CN(C)CCN(C)Cc1c2ccccc2c(CN(C)CCN(C)C)c2ccccc12 has a reported ΔTm of 1

The compound listed as CC(C)N(CCNCc1c2ccccc2c(CNCCN(C(C)C)C(C)C)c2ccccc12)C(C)C has a reported ΔTm of 9

* * *

System: Nucleic Acid
methodNotes: delta Tm value is the difference between Tm(melting temperature) for calf thymus DNA with drug and without drug(Tm = 71 degree C for DNA alone)
Assay type: nucleic-acid assay
conditionDescription: Bos taurus
endpointLabel: ΔTm

# lookup: NCCNCc1c2ccccc2c(CNCCN)c2ccccc12 on Nucleic Acid, ΔTm = 14 °C

# lookup: CN(C)CCNCc1c2ccccc2c(CNCCN(C)C)c2ccccc12 on Nucleic Acid, ΔTm = 12 °C

# lookup: CN1CCN=C1/C=C/c1c2ccccc2c(/C=C/C2=NCCN2)c2ccccc12 on Nucleic Acid, ΔTm = > 20 °C

# lookup: CCN1CCCC(NCc2c3ccccc3c(CNC3CCCN(CC)C3)c3ccccc23)C1 (stereo unspecified) on Nucleic Acid, ΔTm = 16 °C

# lookup: OCCCCCNCc1c2ccccc2c(CNCCCCCO)c2ccccc12 on Nucleic Acid, ΔTm = 13 °C

# lookup: C(=N\NC1=NCCN1)/c1c2ccccc2c(/C=N/NC2=NCCN2)c2ccccc12 on Nucleic Acid, ΔTm = 19 °C

* * *

methodNotes: pKa value for amino group in the compound
Type: physicochemical
conditionDescription: read-out: pKa1
endpointLabel: pKa
Response field accepts a number only; no unit should be typed.

The compound listed as c1ccc2c(CNCCN3CCOCC3)c3ccccc3c(CNCCN3CCOCC3)c2c1 has a reported pKa of 3.85

The compound listed as CN(C)CCNCc1c2ccccc2c(CNCCN(C)C)c2ccccc12 has a reported pKa of 3.9

The compound listed as CN(C)CCN(C)Cc1c2ccccc2c(CN(C)CCN(C)C)c2ccccc12 has a reported pKa of 3.1

The compound listed as CCN1CCCC(NCc2c3ccccc3c(CNC3CCCN(CC)C3)c3ccccc23)C1 (stereo not given) has a reported pKa of 2.4

The compound listed as C(=N\NC1=NCCN1)/c1c2ccccc2c(/C=N/NC2=NCCN2)c2ccccc12 [BISANTRENE] has a reported pKa of 6.8
